# system.tested: Angiotensin converting enzyme (ACE) (Cavia porcellus, UniProt H0UWL7)
# Construct: ACE from guinea pig serum and the test compounds are preincubated for 10 minutes
# Sequence (H0UWL7 33-1302): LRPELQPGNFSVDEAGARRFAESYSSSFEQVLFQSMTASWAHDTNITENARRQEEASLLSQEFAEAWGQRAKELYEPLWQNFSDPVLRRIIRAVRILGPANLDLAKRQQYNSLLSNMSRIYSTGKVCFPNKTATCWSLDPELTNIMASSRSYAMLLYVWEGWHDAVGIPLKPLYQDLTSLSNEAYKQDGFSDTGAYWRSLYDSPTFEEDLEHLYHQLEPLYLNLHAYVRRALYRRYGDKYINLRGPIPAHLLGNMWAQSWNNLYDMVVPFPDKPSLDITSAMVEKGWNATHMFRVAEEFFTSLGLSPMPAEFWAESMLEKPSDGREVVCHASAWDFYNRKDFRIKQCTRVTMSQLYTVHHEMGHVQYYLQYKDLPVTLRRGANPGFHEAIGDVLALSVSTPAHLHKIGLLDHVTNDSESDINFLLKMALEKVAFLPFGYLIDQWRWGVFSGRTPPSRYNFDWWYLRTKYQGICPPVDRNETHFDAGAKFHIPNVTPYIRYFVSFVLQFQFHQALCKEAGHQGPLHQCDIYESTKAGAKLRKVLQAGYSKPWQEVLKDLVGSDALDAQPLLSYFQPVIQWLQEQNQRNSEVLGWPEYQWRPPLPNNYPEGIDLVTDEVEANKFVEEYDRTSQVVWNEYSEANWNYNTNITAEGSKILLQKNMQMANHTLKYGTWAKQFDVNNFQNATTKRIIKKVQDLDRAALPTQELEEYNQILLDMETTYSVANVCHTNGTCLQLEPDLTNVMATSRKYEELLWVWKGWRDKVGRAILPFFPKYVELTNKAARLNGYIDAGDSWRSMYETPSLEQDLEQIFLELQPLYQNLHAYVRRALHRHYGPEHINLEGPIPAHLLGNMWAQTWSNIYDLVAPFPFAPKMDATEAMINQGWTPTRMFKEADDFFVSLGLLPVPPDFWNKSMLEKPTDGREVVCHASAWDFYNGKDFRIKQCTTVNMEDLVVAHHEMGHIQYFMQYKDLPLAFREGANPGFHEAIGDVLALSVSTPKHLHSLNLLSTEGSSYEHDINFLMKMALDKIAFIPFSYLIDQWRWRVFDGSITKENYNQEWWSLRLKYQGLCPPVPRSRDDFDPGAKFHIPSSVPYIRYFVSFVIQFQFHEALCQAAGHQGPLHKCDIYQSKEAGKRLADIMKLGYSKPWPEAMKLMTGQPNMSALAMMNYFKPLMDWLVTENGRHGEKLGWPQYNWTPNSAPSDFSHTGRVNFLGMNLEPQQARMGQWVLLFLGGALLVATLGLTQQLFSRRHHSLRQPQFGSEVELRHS
# procedure.summary: In vitro ACE Assay: angiotensin converting enzyme inhibitory activity (guinea pig serum ACE, 3H-hippuryl-glycyl-glycine substrate)
# condition.info: 10 min preincubation, 60 minute incubation at 37° C., read-out: IC50 (Activity of Compounds of Formula V)
Exercise: state measured IC50 for each of the compounds provided.
All answers are understood in nM, so give the number only.

Note IC50 for the compound shown: CC(CS)C(=O)N1[C@H](C(=O)O)C[C@@H]2CCCC[C@@H]21 (relative stereo) [V: R=H, R1=CH3, R2=H, --] 16

Note IC50 for the compound shown: CC(CSC(=O)C(C)(C)C)C(=O)N1[C@H](C(=O)O)C[C@@H]2CCCC[C@@H]21 (single isomer, unassigned) 170

Note IC50 for the compound shown: CC(=O)SCC(C)C(=O)N1[C@H](C(=O)O)C[C@@H]2CCCC[C@@H]21 (single isomer, unassigned; diastereomer a) [V: R=H, R1=CH3, R2=CH3 CO, A] 160

Note IC50 for the compound shown: CC(=O)SCCC(=O)N1[C@H](C(=O)O)C[C@@H]2CCCC[C@@H]21 (relative stereo) 480

Note IC50 for the compound shown: CC(CSC(=O)c1ccccc1)C(=O)N1[C@H](C(=O)O)C[C@@H]2CCCC[C@@H]21 (single isomer, unassigned; diastereomer a) 960

----------
# system.tested: Angiotensin converting enzyme (ACE) (Cavia porcellus, UniProt H0UWL7)
# Construct: ACE from guinea pig serum and the test compounds are preincubated for 10 minutes
# procedure.summary: In vitro ACE Assay: angiotensin converting enzyme inhibitory activity (guinea pig serum ACE, 3H-hippuryl-glycyl-glycine substrate)
# condition.info: 10 min preincubation, 60 minute incubation at 37° C., read-out: IC50 (Activity of Compounds of Formula V)
pIC50: −log10 of the molar value.
The label depends only on pIC50: t if it is at least 6, f if it is smaller.

Form field: pIC50 at least 6? Entry: CC(CS)C(=O)N1[C@H](C(=O)O)C[C@@H]2CCCC[C@@H]21 (single isomer, unassigned; diastereomer a) [V: R=H, R1=CH3, R2=H, dl, A] t

Form field: pIC50 at least 6? Entry: O=C(O)[C@@H]1C[C@@H]2CCCC[C@@H]2N1C(=O)CCS (relative stereo) t

Form field: pIC50 at least 6? Entry: CCC(=O)SCC(C)C(=O)N1[C@H](C(=O)O)C[C@@H]2CCCC[C@@H]21 (single isomer, unassigned; diastereomer a) t

Form field: pIC50 at least 6? Entry: CCOC(=O)[C@@H]1C[C@@H]2CCCC[C@@H]2N1C(=O)C(C)CSC(C)=O (relative stereo) f
